Study target: CA14 (anchor binder nanobody)
Construct: nanobody CA14, tag-free; CA14 alone in ITC
Protocol: ITC; […] Å crystal structure of the CA14-CBD-DB21 ternary complex
pKd: −log10 of the molar value.
Measurement type: pKd

Smiles representation: C=C(C)[C@@H]1CCC(C)=C[C@H]1c1c(O)cc(CCCCC)cc1O
Study target: CA14 (anchor binder nanobody)
Quantitative readout: 5.66

This collection of values is drawn from paper PMC8831599.
